Biological target: Upc2 (UniProt Q12151)
Sequence: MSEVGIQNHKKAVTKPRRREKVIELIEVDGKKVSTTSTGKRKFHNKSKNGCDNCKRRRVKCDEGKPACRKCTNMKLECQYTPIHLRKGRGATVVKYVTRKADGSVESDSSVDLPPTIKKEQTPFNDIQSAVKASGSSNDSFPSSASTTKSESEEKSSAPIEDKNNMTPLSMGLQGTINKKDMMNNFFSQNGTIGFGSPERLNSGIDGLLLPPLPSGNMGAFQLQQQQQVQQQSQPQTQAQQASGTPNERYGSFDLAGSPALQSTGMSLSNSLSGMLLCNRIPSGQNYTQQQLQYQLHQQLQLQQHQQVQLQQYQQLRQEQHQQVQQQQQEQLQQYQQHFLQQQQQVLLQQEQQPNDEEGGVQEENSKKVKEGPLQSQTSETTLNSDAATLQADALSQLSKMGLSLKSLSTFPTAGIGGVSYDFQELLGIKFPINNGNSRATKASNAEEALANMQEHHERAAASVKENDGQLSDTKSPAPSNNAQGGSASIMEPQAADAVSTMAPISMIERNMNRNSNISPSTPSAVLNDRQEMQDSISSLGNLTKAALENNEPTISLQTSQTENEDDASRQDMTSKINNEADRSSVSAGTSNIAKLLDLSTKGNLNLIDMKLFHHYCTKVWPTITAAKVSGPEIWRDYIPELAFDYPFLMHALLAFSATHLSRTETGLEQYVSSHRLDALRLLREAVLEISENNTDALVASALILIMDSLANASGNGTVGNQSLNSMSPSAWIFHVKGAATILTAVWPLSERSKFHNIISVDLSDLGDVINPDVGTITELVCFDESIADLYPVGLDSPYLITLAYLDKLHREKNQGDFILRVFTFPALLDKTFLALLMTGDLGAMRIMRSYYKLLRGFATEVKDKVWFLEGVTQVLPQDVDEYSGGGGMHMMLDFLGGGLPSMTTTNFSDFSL
Experiment: PBM E-score (8-mer binding enrichment) (E-score (-0.5 to 0.5)); higher = stronger / more preferred TF binding
Settings: protein concentration: 200 nM; construct: GST-full length
In all, about 33,000 sequences were measured (“E-score (-0.5 to 0.5)”: median about -0.043, highest 2% from about 0.37 on). The sample as a whole holds a higher share of the highest values than the screen did.
Rule: 1 for PBM E-score not less than 0.05, 0 for anything less.

Query string: Is it the case that `CGACGATA` has PBM E-score reaching or exceeding 0.05?
Result string: 1

Query string: Is it the case that `ATATAATC` has PBM E-score reaching or exceeding 0.05?
Result string: 0

Query string: Is it the case that `ACAACGAC` has PBM E-score reaching or exceeding 0.05?
Result string: 1

Query string: Is it the case that `ACGCACGT` has PBM E-score reaching or exceeding 0.05?
Result string: 1

Query string: Is it the case that `ATCAGTGC` has PBM E-score reaching or exceeding 0.05?
Result string: 0

Query string: Is it the case that `AAAAGGGA` has PBM E-score reaching or exceeding 0.05?
Result string: 0

Query string: Is it the case that `TAAGGCCA` has PBM E-score reaching or exceeding 0.05?
Result string: 0

Query string: Is it the case that `AGCAAGGA` has PBM E-score reaching or exceeding 0.05?
Result string: 0

Query string: Is it the case that `GAAACGCC` has PBM E-score reaching or exceeding 0.05?
Result string: 1

Query string: Is it the case that `AGTCTCTA` has PBM E-score reaching or exceeding 0.05?
Result string: 0

Query string: Is it the case that `ACGCGAGG` has PBM E-score reaching or exceeding 0.05?
Result string: 1

Query string: Is it the case that `AAAACGAG` has PBM E-score reaching or exceeding 0.05?
Result string: 1

Query string: Is it the case that `AACAGTTA` has PBM E-score reaching or exceeding 0.05?
Result string: 0

Query string: Is it the case that `CATCCTAC` has PBM E-score reaching or exceeding 0.05?
Result string: 0

Query string: Is it the case that `GATCAGCC` has PBM E-score reaching or exceeding 0.05?
Result string: 0

Query string: Is it the case that `ATTTTTCG` has PBM E-score reaching or exceeding 0.05?
Result string: 1

Query string: Is it the case that `GCCCCTCC` has PBM E-score reaching or exceeding 0.05?
Result string: 0

Query string: Is it the case that `AAGGTAAT` has PBM E-score reaching or exceeding 0.05?
Result string: 1

Query string: Is it the case that `CCGTCGAA` has PBM E-score reaching or exceeding 0.05?
Result string: 0

Query string: Is it the case that `ATTGTGCC` has PBM E-score reaching or exceeding 0.05?
Result string: 0

Query string: Is it the case that `AAAACGAT` has PBM E-score reaching or exceeding 0.05?
Result string: 1

Query string: Is it the case that `AACCCTCT` has PBM E-score reaching or exceeding 0.05?
Result string: 0

Query string: Is it the case that `ACTCGCCC` has PBM E-score reaching or exceeding 0.05?
Result string: 0

Query string: Is it the case that `TACCTGCA` has PBM E-score reaching or exceeding 0.05?
Result string: 0

Query string: Is it the case that `CCGTACAC` has PBM E-score reaching or exceeding 0.05?
Result string: 1

Query string: Is it the case that `CCAACGAC` has PBM E-score reaching or exceeding 0.05?
Result string: 0

Query string: Is it the case that `CTAGGGAA` has PBM E-score reaching or exceeding 0.05?
Result string: 0

Query string: Is it the case that `GAGTAGGC` has PBM E-score reaching or exceeding 0.05?
Result string: 0

Query string: Is it the case that `CAAACGAC` has PBM E-score reaching or exceeding 0.05?
Result string: 1

Query string: Is it the case that `AGGTCTCA` has PBM E-score reaching or exceeding 0.05?
Result string: 0

Query string: Is it the case that `AGATAAGA` has PBM E-score reaching or exceeding 0.05?
Result string: 1

Query string: Is it the case that `CAGAGATG` has PBM E-score reaching or exceeding 0.05?
Result string: 0

Query string: Is it the case that `AAGACTGG` has PBM E-score reaching or exceeding 0.05?
Result string: 0

Query string: Is it the case that `CTGCTACC` has PBM E-score reaching or exceeding 0.05?
Result string: 0

Query string: Is it the case that `GGCAAGGA` has PBM E-score reaching or exceeding 0.05?
Result string: 0

Query string: Is it the case that `CTCGAACA` has PBM E-score reaching or exceeding 0.05?
Result string: 0
